molecular target: PTRGER4 (EP4) (Homo sapiens (Human)); test: hEP4 b-arrestin assay (PathHunter HEK 293 PTGER4 b-arrestin cells); assay type: cell-based; settings: hEP4 b-arrestin assay (values without asterisk)
Sequence (P35408 whole entry, looked up): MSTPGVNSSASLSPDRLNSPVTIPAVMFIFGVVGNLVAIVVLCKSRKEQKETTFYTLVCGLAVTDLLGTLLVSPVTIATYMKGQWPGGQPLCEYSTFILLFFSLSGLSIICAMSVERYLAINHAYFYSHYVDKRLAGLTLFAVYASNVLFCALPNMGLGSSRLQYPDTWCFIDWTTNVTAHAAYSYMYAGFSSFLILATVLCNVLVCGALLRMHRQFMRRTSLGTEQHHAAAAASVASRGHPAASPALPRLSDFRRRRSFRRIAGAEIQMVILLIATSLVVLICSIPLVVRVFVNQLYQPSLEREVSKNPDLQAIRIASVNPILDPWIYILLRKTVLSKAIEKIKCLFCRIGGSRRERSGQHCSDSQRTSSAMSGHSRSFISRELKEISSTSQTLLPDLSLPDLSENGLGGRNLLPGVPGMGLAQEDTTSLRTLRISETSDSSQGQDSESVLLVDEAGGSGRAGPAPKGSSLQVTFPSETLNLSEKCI
I'd be grateful if you could share measured log10(IC50) for these entries.
Note: values are log10 of IC50 expressed in nM.

[[record]]
compound = "CCNc1csc(-c2cc(NCCn3c(C)cc4c(C)ccc(F)c43)ncn2)c1 [Example 1068]"
reported_value = 1.18

[[record]]
compound = "COc1ccc(F)c2c1cc(C#N)n2CCNc1cc(-c2ccc(-c3cn(C)c(C)n3)cc2)ncn1 [Example 824]"
reported_value = 0.85

[[record]]
compound = "CCOc1cc(-c2cc(NCCn3c(C)cc4c(OC)ccc(F)c43)ncn2)sc1-c1noc(=O)[nH]1 [Example 1054]"
reported_value = 0.00

[[record]]
compound = "COc1ccc(F)c2c1cc(C#N)n2CCNc1cc(-c2ccc(-c3nc[nH]c3C)cc2)ncn1 [Example 819]"
reported_value = 0.30

[[record]]
compound = "CCOc1cc(-c2cc(NCCn3c(C#N)cc4c(OC)ccc(F)c43)ncn2)ccc1NC(=O)C(=O)O [Example 853]"
reported_value = 0.00

[[record]]
compound = "Cc1cccc2c1cc(C)n2CCNc1cc(-c2cc(OC(C)C)c(C(=O)O)s2)ncn1 [Example 879]"
reported_value = 1.56

[[record]]
compound = "COc1ccc(F)c2c1cc(C#N)n2CCNc1cc(-c2ccc(-c3noc(=O)[nH]3)cc2)ncn1 [Example 825]"
reported_value = 0.90

[[record]]
compound = "COc1n[nH]c2cc(-c3cc(NCCn4c(C#N)cc5c(OC)ccc(F)c54)ncn3)ccc12 [Example 918]"
reported_value = 1.86


# per-item lookup of log10(IC50); items listed below
1. CCOc1cc(-c2cc(NCCn3c(C#N)cc4c(OC)ccc(F)c43)ncn2)sc1C(=O)NS(N)(=O)=O [Example 1029]
2. CCOc1cc(-c2cc(NCCn3c(C#N)cc4c(OC)ccc(F)c43)ncn2)sc1C(=O)NCCO [Example 1026]
3. CCOc1cc(-c2cc(NCCn3c(C)c(F)c4ccccc43)ncn2)sc1C(=O)O [Example 875]
4. CCOc1cc(-c2cc(NCCn3c(C)cc4c(OC)ccc(F)c43)ncn2)sc1-c1nnn[nH]1 [Example 1051]
5. CCOc1cc(-c2cc(NCCn3c(C)cc4c(OC)ccc(F)c43)ncn2)sc1C(=N)NO [Example 1052]
6. CCOc1cc(-c2cc(NCCn3c(C)cc4c(OC)ccc(F)c43)ncn2)ccc1-c1ncco1 [Example 842]

Result block:
[0.78, 0.00, 1.41, 0.60, 0.85, 1.97]

# per-item lookup of log10(IC50); items listed below
1. COc1ccc(F)c2c1cc(C)n2CCNc1cc(-c2cc(OCC(F)(F)F)c(C(=O)O)s2)ncn1 [Example 832]
2. CCOc1cc(-c2cc(NCCn3c(C)cc4c(OC)cccc43)ncn2)ccc1-c1noc(=O)[nH]1 [Example 881]

Result block:
[1.40, 1.61]
